experimental_target: RSK1-T573E-D690* (Homo sapiens, UniProt Q15418, T573E)
test_summary: HTRF KinEASE kinase assay, inhibition of constitutively active RSK CTKD
protocol_conditions: covalent inhibitor, approximative IC50; 30-min incubation prior kinase reaction; mean ± SD, n = 3
readout_type: IC50 (µM)
Numeric only. Scale: µM

Problem: Tell me the measured IC50 of `Cc1ccc(-c2c(C(=O)CF)n(CCCO)c3ncnc(N)c23)cc1` , please.
Result: 0.063

###

experimental_target: RSK4-T581E-D698* (Homo sapiens, UniProt Q9UK32, T581E)
Sequence (Q9UK32 403-697 T581E): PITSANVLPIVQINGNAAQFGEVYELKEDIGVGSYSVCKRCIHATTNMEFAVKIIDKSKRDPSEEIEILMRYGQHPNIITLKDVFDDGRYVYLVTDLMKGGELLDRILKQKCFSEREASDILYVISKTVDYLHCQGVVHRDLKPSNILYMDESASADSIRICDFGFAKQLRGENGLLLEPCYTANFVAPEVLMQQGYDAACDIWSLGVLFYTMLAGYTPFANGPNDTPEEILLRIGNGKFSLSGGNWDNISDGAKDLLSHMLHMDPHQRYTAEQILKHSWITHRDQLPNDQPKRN
test_summary: HTRF KinEASE kinase assay, inhibition of constitutively active RSK CTKD
protocol_conditions: covalent inhibitor, approximative IC50; 30-min incubation prior kinase reaction; mean ± SD, n = 3
readout_type: pIC50
Keep it numeric: pIC50 is minus log10 of the concentration in mol/L.

Problem: Request: pIC50, test system RSK4-T581E-D698* (Homo sapiens, UniProt Q9UK32, T581E), entry Cc1ccc(-c2c(C(=O)CF)n(CCCO)c3ncnc(N)c23)cc1 [fmk, fluoromethylketone pyrrolopyrimidine]
Result: 7.21
